- SYSTEM_UNDER_TEST: DGKα (Homo sapiens (Human))
- Sequence (P23743 whole entry): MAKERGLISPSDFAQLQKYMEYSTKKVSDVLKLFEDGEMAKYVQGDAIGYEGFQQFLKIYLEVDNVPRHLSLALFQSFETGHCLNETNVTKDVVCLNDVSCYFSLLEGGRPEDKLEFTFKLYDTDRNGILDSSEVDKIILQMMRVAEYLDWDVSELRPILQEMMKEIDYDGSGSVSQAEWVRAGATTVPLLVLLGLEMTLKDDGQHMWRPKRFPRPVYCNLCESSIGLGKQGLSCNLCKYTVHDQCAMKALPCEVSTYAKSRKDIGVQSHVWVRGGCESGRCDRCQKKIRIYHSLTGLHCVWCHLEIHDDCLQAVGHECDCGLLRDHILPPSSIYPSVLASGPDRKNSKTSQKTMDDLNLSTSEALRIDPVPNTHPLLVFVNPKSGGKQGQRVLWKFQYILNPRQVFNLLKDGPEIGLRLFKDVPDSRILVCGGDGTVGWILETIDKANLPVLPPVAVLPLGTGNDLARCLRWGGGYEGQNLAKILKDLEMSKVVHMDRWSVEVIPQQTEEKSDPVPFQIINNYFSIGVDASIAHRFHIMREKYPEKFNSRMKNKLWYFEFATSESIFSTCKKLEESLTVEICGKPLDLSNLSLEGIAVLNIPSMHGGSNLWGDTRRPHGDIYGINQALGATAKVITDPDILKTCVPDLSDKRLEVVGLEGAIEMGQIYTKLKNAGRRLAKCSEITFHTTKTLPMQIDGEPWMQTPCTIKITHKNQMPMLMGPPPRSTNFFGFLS
- ASSAY_NOTES: In vitro DGKα inhibition assay (ADP-Glo)
- CONDITION_CONTEXT: His-tagged human recombinant enzyme, 0.1 nM DGKα, 50 μM ATP, 20 μM DLG, 90 minute incubation
MEASURE: IC50

Exercise: So what's the measured IC50 for this one? "Cc1nc2c(N3C[C@@H]([C@@H](C)O)N(C(c4ccc(F)cc4)c4ccc(F)cc4)C[C@@H]3C)nc3nncn3c2n1C[C@@H]1CCCO1"
Key: ≤ 0.02 µM

Exercise: So what's the measured IC50 for this one? "Cc1nc2c(N3C[C@@H](C)N(C(c4ccc(C(F)(F)F)cc4)c4ccc(C(F)(F)F)cc4)C[C@@H]3C)nc3nncn3c2n1C[C@@H]1CCCO1"
Key: ≤ 0.02 µM

Exercise: So what's the measured IC50 for this one? "Cc1nc2c(N3C[C@@H](C)N([C@H](c4cccc(F)c4)C(C)C)C[C@@H]3C)nc3nncn3c2n1C[C@@H]1CCCO1"
Key: ≤ 0.02 µM

---

- SYSTEM_UNDER_TEST: DGKζ (Homo sapiens (Human), UniProt Q13574)
- Sequence (Q13574 whole entry): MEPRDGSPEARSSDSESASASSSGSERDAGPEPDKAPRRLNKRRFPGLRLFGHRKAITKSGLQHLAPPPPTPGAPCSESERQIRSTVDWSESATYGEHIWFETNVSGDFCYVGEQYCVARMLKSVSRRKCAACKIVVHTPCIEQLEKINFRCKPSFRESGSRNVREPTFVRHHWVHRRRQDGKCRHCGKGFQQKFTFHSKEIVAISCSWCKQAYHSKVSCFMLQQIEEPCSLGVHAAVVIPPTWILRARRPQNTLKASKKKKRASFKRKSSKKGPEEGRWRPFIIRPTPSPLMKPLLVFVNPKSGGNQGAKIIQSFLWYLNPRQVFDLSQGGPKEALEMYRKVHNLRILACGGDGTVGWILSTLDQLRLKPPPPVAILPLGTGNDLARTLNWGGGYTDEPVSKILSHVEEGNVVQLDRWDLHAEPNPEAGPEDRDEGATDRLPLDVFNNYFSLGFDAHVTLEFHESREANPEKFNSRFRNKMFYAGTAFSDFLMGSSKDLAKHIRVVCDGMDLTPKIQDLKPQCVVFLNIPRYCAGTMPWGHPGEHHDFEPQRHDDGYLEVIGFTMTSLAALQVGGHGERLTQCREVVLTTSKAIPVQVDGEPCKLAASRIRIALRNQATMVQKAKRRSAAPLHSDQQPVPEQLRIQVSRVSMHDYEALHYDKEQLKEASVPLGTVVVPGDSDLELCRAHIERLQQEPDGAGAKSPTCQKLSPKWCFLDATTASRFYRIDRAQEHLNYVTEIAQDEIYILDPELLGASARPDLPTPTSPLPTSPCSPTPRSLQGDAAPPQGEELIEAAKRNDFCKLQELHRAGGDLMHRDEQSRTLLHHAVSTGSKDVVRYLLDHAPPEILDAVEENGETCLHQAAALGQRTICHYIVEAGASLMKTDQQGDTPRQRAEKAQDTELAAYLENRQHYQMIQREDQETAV
- ASSAY_NOTES: In vitro DGKζ inhibition assay (ADP-Glo)
- CONDITION_CONTEXT: His-tagged human recombinant enzyme, 0.4 nM DGK, 30 μM ATP, 20 μM DLG, 90 minute incubation
Entries and their IC50

Answered examples (2):
Cc1nc2c(N3C[C@@H](C)N(C(c4cc(F)ccc4F)C4CC(F)(F)C4)C[C@@H]3C)nc3nncn3c2n1C[C@@H]1CCCO1 (stereo partly drawn)	≤ 20 nM
C[C@@H]1CN(c2nc3nncn3c3c2ncn3CCN(C)C)[C@@H](C)CN1C(c1ccc(Br)cc1)C1CC(F)(F)C1 (stereo partly drawn)	≤ 20 nM

Exercise: Find the measured IC50: item "C[C@@H]1CN(c2nc3nncn3c3c2ncn3CC2CC2)[C@@H](C)CN1[C@@H](c1ccc(F)cc1)c1ccc(OC(F)(F)F)cn1" , target or system DGKζ (Homo sapiens (Human), UniProt Q13574).
Key: ≤ 20 nM

---

- SYSTEM_UNDER_TEST: DGKζ (Homo sapiens (Human))
- ASSAY_NOTES: In vitro DGKζ inhibition assay (ADP-Glo)
- CONDITION_CONTEXT: His-tagged human recombinant enzyme, 0.4 nM DGK, 30 μM ATP, 20 μM DLG, 90 minute incubation
pIC50: −log10 of the molar value.
MEASURE: pIC50

C[C@@H]1CN(c2nc3nncn3c3sc(C(F)F)nc23)[C@@H](C)CN1C(c1ccc(F)cc1)c1ccc(F)cc1 [Example 3]	5.70 to 6.70
Cc1nc2c(N3C[C@@H](C)N([C@H](c4ccc(OC(F)(F)F)cc4)C(C)C)C[C@@H]3C)nc3nncn3c2n1C[C@@H]1CCCO1 [Example 118]	≥ 7.70
N#CCC[C@@H]1CN(c2nc3nncn3c3scnc23)CCN1C(c1ccc(F)cc1)c1ccc(F)cc1 [Example 17]	6.70 to 7.70
Cc1nc2c(N3C[C@@H](C)N(C(c4ccc(Cl)cc4)c4ccc(Cl)cc4)C[C@@H]3C)nc3nncn3c2n1C[C@@H]1CCCO1 [Example 105]	≥ 7.70
Cc1nc2c(N3C[C@@H](C)N(C(c4cc(F)c(C(F)(F)F)cc4F)C4CC(F)(F)C4)C[C@@H]3C)nc3nncn3c2n1C[C@@H]1CCCO1 (stereo partly drawn) [Example 56]	≥ 7.70

Now take the following compound into account.
Exercise: So what's the measured pIC50 for this one? Cc1nc2c(N3C[C@@H]([C@H](C)O)N(C(c4ccc(F)cc4)c4ccc(F)cc4)C[C@@H]3C)nc3nncn3c2n1C[C@@H]1CCCO1 [Example 124]
Key: ≥ 7.70

Data credit: patent US20230399342A1
